target: GRB2-2 SH3 domain (aa 158-215) (Homo sapiens, UniProt P62993); construct: 158-215; GST (N); made in house; host or cells: Escherichia coli CodonPlus, Rosetta, BL21(DE3); assay: Fluorescence polarization SH3 domain-PRP binding; details: FP, 0.2 µM fluorescein-labeled peptide, SH3 domain 0-200 µM, Tris/HCl pH 7.5, 25 °C, quadratic fit
Sequence (P62993 158-215): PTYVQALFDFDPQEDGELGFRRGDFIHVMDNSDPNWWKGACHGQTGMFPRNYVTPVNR
pKd: −log10 of the molar value. Peptide text beside a SMILES is read from it.
readout_name: pKd

Please review the following examples before continuing.
CC(C)[C@H](NC(=O)[C@@H]1CCCN1C(=O)[C@@H]1CCCN1C(=O)[C@H](C)NC(=O)[C@H](CCC(=O)O)NC(=O)[C@H](CS)NC(=O)[C@@H](N)CCCNC(=N)N)C(=O)N1CCC[C@H]1C(=O)N1CCC[C@H]1C(=O)N[C@@H](CCCNC(=N)N)C(=O)N[C@@H](CCCNC(=N)N)C(=O)N[C@@H](CCC(=O)O)C(=O)N[C@@H](CCCNC(=N)N)C(=O)NCC(=O)O [RP2, reference compound] (H-RCEAPPVPPRRERG-OH) :: 4.89
CC(C)C[C@H](NC(=O)[C@@H]1CCCN1C(=O)[C@@H](NC(=O)[C@H](CCCNC(=N)N)NC(=O)[C@@H]1CCCN1C(=O)[C@H](CO)NC(=O)[C@H](CC(N)=O)NC(=O)[C@@H]1CCCN1C(=O)[C@H](C)NC(=O)[C@@H](N)CO)[C@@H](C)O)C(=O)N[C@H](C(=O)N1CCC[C@H]1C(=O)N1CCC[C@H]1C(=O)N1CCC[C@H]1C(=O)N[C@@H](C)C(=O)N[C@@H](CO)C(=O)O)[C@@H](C)O [Peptide P1] (H-SAPNSPRTPLTPPPAS-OH) :: < 3.70
CC(C)C[C@H](NC(=O)[C@H](Cc1c[nH]cn1)NC(=O)[C@H](CC(C)C)NC(=O)[C@@H]1CCCN1C(=O)[C@H](CO)NC(=O)[C@H](CO)NC(=O)[C@@H](N)CO)C(=O)N[C@@H](CCC(N)=O)C(=O)N1CCC[C@H]1C(=O)N1CCC[C@H]1C(=O)N1CCC[C@H]1C(=O)N[C@@H](CC(C)C)C(=O)NCC(=O)N[C@@H](CCCCN)C(=O)N[C@@H](CCCCN)C(=O)O [Peptide P6] (H-SSSPLHLQPPPLGKK-OH; N-terminus and C-terminus assumed) :: < 3.70
CC(C)[C@H](N)C(=O)N1CCC[C@H]1C(=O)N[C@H](C(=O)N1CCC[C@H]1C(=O)N1CCC[C@H]1C(=O)N1CCC[C@H]1C(=O)N[C@H](C(=O)N1CCC[C@H]1C(=O)N1CCC[C@H]1C(=O)N[C@@H](CCCNC(=N)N)C(=O)N[C@@H](CCCNC(=N)N)C(=O)N[C@@H](CCCNC(=N)N)C(=O)O)C(C)C)C(C)C [RP1, reference compound] :: 5.47
CC(C)C[C@H](NC(=O)[C@@H](NC(=O)[C@@H](N)C(C)C)[C@@H](C)O)C(=O)N1CCC[C@H]1C(=O)N[C@@H](Cc1c[nH]cn1)C(=O)NCC(=O)N1CCC[C@H]1C(=O)N[C@@H](CCCNC(=N)N)C(=O)N[C@@H](CO)C(=O)N[C@@H](C)C(=O)O [Peptide P2] (H-VTLPHGPRSA-OH) :: < 3.70

Lookup: Quick one: pKd of CC[C@H](C)[C@H](NC(=O)[C@H](C)NC(=O)[C@@H]1CCCN1C(=O)[C@@H]1CCCN1C(=O)[C@H](CO)NC(=O)[C@H](CC(=O)O)NC(=O)[C@@H](N)CC(C)C)C(=O)N1CCC[C@H]1C(=O)N1CCC[C@H]1C(=O)N[C@@H](CCCNC(=N)N)C(=O)N[C@@H](CCC(N)=O)C(=O)N1CCC[C@H]1C(=O)N[C@H](C(=O)N[C@@H](CO)C(=O)N[C@@H](CCCCN)C(=O)O)[C@@H](C)O [Peptide P4] (H-LDSPPAIPPRQPTSK-OH) ?
Found: 4.70

Lookup: Quick one: pKd of CC[C@H](C)[C@H](N)C(=O)N[C@@H](C)C(=O)NCC(=O)N1CCC[C@H]1C(=O)N1CCC[C@H]1C(=O)N[C@H](C(=O)N1CCC[C@H]1C(=O)N1CCC[C@H]1C(=O)N[C@@H](CCCNC(=N)N)C(=O)N[C@@H](CCC(N)=O)C(=O)N[C@@H](CO)C(=O)O)C(C)C [Peptide P9] (H-IAGPPVPPRQS-OH) ?
Found: < 3.70

Lookup: Quick one: pKd of CC(C)C[C@H](NC(=O)[C@@H]1CCCN1C(=O)[C@@H]1CCCN1C(=O)[C@H](CO)NC(=O)[C@@H]1CCCN1C(=O)[C@H](CC(C)C)NC(=O)[C@H](Cc1c[nH]cn1)NC(=O)[C@@H](N)CCCNC(=N)N)C(=O)N[C@H](C(=O)N[C@@H](CCC(N)=O)C(=O)O)[C@@H](C)O [Peptide P8] (H-RHLPSPPLTQ-OH; N-terminus and C-terminus assumed) ?
Found: < 3.70

Lookup: Quick one: pKd of CC[C@H](C)[C@H](NC(=O)[C@H](Cc1c[nH]cn1)NC(=O)[C@@H](N)CCC(N)=O)C(=O)N1CCC[C@H]1C(=O)N[C@@H](CCCCN)C(=O)N[C@@H](CC(C)C)C(=O)N1CCC[C@H]1C(=O)N1CCC[C@H]1C(=O)N[C@@H](CCCCN)C(=O)N[C@H](C(=O)N[C@@H](Cc1ccc(O)cc1)C(=O)O)[C@@H](C)O [Peptide P10] (H-QHIPKLPPKTY-OH; N-terminus and C-terminus assumed) ?
Found: < 3.70

Hello, the source for this data is paper PMC10814857, in case you need it.
